- Test system: Escherichia coli TOP10;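 note: peptides expressed intracellularly from a pBAD plasmid library in pooled LB shake-flask culture, induced with 0.3% L-arabinose, DNA abundance read by NGS, three biological replicates, DESeq2 with apeglm shrinkage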
- assayDetails: shrunken log2 fold change of peptide-encoding DNA abundance (4.5 h post-induction vs induction); higher = less antimicrobial activity (less host growth inhibition)
- conditionContext: time post-induction: 4.5 h; library: site-saturation at positions 5, 18, 19, 20
Assign class by shrunken log2 fold change: not lower than -0.07 means Met; lower than -0.07 means Not met.

RRIRGRPPRLPRPRPRPYNKPRP : Not met

Query: Hi, just wondering whether `RRIRERPPRLPRPRPRPQNKPRP` shows shrunken log2 fold change of -0.07 or higher.
Response: Not met

Query: hey, is shrunken log2 fold change for this one >= -0.07? `RRIRTRPPRLPRPRPRPINLPRP`
Response: Not met

Query: Does shrunken log2 fold change meet or surpass -0.07 for `RRIRRRPPRLPRPRPRPTWIPRP` ?
Response: Met

Query: Could you please find out whether `RRIRPRPPRLPRPRPRPRGMPRP` has shrunken log2 fold change that meets -0.07 or exceeds it?
Response: Met
